The reported measurements were obtained from ChEMBL document CHEMBL3217547.

- assayed_system: Amine oxidase [flavin-containing] A (Homo sapiens)
- Sequence (P21397 whole entry): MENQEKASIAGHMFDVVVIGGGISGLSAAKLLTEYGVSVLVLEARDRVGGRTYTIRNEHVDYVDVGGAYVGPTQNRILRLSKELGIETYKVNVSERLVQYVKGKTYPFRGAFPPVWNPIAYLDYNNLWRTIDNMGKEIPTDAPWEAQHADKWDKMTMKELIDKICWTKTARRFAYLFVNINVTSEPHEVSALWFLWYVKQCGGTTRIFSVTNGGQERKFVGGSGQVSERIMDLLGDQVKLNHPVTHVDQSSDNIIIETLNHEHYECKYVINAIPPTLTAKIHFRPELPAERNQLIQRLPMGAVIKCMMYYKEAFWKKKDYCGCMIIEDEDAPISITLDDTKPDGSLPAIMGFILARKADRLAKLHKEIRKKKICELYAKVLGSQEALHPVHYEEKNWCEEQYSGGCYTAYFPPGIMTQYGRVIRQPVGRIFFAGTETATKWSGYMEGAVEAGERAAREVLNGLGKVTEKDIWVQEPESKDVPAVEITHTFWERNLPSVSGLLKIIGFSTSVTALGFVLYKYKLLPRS
- experimental_protocol: Inhibition of recombinant human MAO-A assessed as production of hydrogen peroxide from p-tyramine after 15 mins by Amplex Red assay
measured_metric: pIC50
In plain terms, pIC50 is the concentration in mol/L turned into minus its base-10 logarithm.

Exercise: Requested read-out: pIC50. Entry: `CC(=O)Nc1cc2ccccc2oc1=O`
Key: 4.41

Exercise: Requested read-out: pIC50. Entry: `Cc1ccc(C(=O)Nc2cc3cc(C)ccc3oc2=O)cc1`
Key: 4.34

###

- assayed_system: Acetylcholinesterase (Homo sapiens, UniProt P22303)
- Sequence (P22303 whole entry): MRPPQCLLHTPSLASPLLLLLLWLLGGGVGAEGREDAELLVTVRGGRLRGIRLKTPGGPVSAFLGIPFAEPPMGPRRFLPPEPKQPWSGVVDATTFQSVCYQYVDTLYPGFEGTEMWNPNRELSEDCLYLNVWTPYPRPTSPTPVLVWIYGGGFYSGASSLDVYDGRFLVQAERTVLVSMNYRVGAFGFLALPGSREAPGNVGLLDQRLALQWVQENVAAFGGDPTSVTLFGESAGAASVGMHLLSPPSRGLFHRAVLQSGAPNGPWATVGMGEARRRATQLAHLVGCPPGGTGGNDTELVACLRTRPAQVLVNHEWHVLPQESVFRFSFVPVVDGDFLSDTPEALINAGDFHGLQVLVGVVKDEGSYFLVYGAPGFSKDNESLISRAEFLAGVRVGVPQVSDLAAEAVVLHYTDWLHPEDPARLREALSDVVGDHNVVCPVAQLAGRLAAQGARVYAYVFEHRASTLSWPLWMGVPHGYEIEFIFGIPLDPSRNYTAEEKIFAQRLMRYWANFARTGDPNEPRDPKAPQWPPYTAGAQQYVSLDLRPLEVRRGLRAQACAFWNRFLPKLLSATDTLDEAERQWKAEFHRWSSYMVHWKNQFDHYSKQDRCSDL
- experimental_protocol: Inhibition of recombinant human AChE expressed in HEK293 cells using acetylthiocholine iodide as substrate at 100 uM preincubated for 5 mins before substrate addition measured after 10 mins by Ellman's method
Activity calls are given as the source filed them. The rule behind the calls is not given here.

structure_smiles	assayed_system	inhibition
O=C(Nc1cc2ccccc2oc1=O)C1CCCCC1	Acetylcholinesterase (Homo sapiens, UniProt P22303)	inactive
O=C(Nc1cc2ccccc2oc1=O)c1ccccc1	Acetylcholinesterase (Homo sapiens, UniProt P22303)	inactive
Cc1ccc(-c2cc3cc(C)ccc3oc2=O)cc1	Acetylcholinesterase (Homo sapiens, UniProt P22303)	inactive

###

- assayed_system: Amine oxidase [flavin-containing] B (Homo sapiens, UniProt P27338)
- Sequence (P27338 whole entry): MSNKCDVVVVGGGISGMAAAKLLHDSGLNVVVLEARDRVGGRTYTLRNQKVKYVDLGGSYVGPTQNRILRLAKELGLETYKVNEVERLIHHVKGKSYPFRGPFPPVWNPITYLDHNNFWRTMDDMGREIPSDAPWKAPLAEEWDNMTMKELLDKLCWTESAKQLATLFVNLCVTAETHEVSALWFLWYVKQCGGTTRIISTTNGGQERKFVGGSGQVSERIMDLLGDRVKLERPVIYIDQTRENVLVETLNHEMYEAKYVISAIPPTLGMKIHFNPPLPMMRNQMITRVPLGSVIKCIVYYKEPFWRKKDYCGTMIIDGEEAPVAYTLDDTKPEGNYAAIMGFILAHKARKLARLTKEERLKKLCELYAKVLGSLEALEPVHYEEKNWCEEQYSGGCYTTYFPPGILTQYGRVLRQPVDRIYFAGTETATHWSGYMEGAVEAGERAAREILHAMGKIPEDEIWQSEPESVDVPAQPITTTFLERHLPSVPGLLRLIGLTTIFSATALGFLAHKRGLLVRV
measured_metric: pIC50
In plain terms, pIC50 is the concentration in mol/L turned into minus its base-10 logarithm.

Exercise: Requested read-out: pIC50. Entry: `O=C(Nc1cc2ccccc2oc1=O)C1CCCCC1`
Key: 4.30

Exercise: Requested read-out: pIC50. Entry: `O=C(Nc1cc2ccccc2oc1=O)c1ccccc1`
Key: 6.12

Exercise: Requested read-out: pIC50. Entry: `Cc1ccc(C(=O)Nc2cc3cc(C)ccc3oc2=O)cc1`
Key: 6.77
